# Tested on: rat cytochrome P450 3A
# Condition Details: Table 2; 0.0001 wt. % component
The entries below are paired with their reported % inhibition of cyclosporine metabolism.
Report as a plain number; the unit % is understood.

Known % inhibition of cyclosporine metabolism results, listed for orientation:
Indicate its recorded % inhibition of cyclosporine metabolism; the compound in question is C=C(C)[C@@H]1CC=C(C)C(=O)C1 [Carvone-(R)-(-), p-Mentha-6,8-dien-2-one] 27

Determine its reported % inhibition of cyclosporine metabolism: CC1(C)C(=O)[C@]2(C)CC[C@H]1C2 [Fenchone-(1R)-(-)] 14

Report % inhibition of cyclosporine metabolism, nothing else, for this compound: C=C1C2CCC(C2)C1(C)C (single isomer, unassigned) [Camphene-(+)] -49

Tell us which % inhibition of cyclosporine metabolism value is on record for CC1=CCC2C(C1)C2(C)C (centres unmarked) -26

Using known records, supply % inhibition of cyclosporine metabolism for `C=CCc1ccc(OC)cc1` 7

New cases:
Please indicate % inhibition of cyclosporine metabolism recorded for `CC1=CC=C(C(C)C)CC1` -6

Consider the compound `CC(C)=CCC/C(C)=C/C=O` . State its measured % inhibition of cyclosporine metabolism. 44

Identify % inhibition of cyclosporine metabolism associated with the compound COC(=O)c1ccccc1N [Methyl Anthranilate, Methyl 2-aminobenzoate] -7

Supply measured % inhibition of cyclosporine metabolism of C=C1CC[C@H]2C[C@@H]1C2(C)C [Pinene-(1S)-(-)-β] in your reply. -10

Tell me % inhibition of cyclosporine metabolism reported for CC(C)=CCCC(C)CCO (centres unmarked) 41

Entry `CC=C(C)C=CC=C(C)C` needs its % inhibition of cyclosporine metabolism filled in; supply it. 6

----------
# Test system: rat cytochrome P450 3A
# Condition Details: Table 2; 0.01 wt. % component
Attribute Measured: % inhibition of cyclosporine metabolism (%)
Note: unit % is implicit; provide only the numeric part.

# count of solved cases: 5
Specify reported % inhibition of cyclosporine metabolism for the molecule shown: `C=CCc1ccc(OC)cc1` 100

Return % inhibition of cyclosporine metabolism (reported value) for this molecule: `C=CCc1ccc(O)c(OC)c1` 100

Please indicate % inhibition of cyclosporine metabolism recorded for C=CC(C)(O)CCC=C(C)C (racemic) [Linalool-(±), 3,7-Dimethyl-1,6-octadien-3-ol] 85

Report % inhibition of cyclosporine metabolism for C=C(C)[C@@H]1CC=C(C)CC1 [Limonene-(S)-(-), p-Mentha-1,8-diene] 82.3

Report % inhibition of cyclosporine metabolism for CC1=CCC(C(C)(C)O)CC1 (stereo not drawn) 100

New cases:
Item C=C(C)[C@@H]1CC=C(C)C(=O)C1 [Carvone-(R)-(-), p-Mentha-6,8-dien-2-one] : provide % inhibition of cyclosporine metabolism 100

// fetch % inhibition of cyclosporine metabolism given entry `CC(C)=CCC/C(C)=C/C=O` 99

Fill in % inhibition of cyclosporine metabolism for record C/C=C/c1ccc(OC)cc1 [Anethole, trans-, 4-Propenylanisole] 100

----------
# Tested on: rat cytochrome P450 3A
# Condition Details: Table 2; 0.0001 wt. % component
Rule: Condition met for % inhibition of cyclosporine metabolism not less than 10%, Condition not met for anything less.

Use the examples below as a reference point.
Does the compound CC1(C)[C@H]2CC[C@](C)(C2)[C@H]1O [Fenchol-(1R)-endo-(+)] have recorded % inhibition of cyclosporine metabolism that is 10% or more? Condition met

Is % inhibition of cyclosporine metabolism for C=CC(C)(O)CCC=C(C)C (racemic) [Linalool-(±), 3,7-Dimethyl-1,6-octadien-3-ol] at or above 10%? Condition met

Is it the case that CC1=CCC(O)(C(C)C)CC1 (centres unmarked) has % inhibition of cyclosporine metabolism reaching or exceeding 10%? Condition not met

Further cases:
Tell me whether % inhibition of cyclosporine metabolism is at least 10% here: `Cc1ccc(C(C)C)cc1O` Condition met
